system: C. krusei ATCC 2340; experiment: microbe, parasite or virus in culture; details: ATCC 2340, 48 h
Where a SMILES comes first, the peptide text is derived from it. Bridges are numbered along the chain shown (N, C = ends). [ ]: non-standard residue; d: D form. S5 = C=CCCC[C@](C)(N)C(=O)O
Recorded Minimum inhibitory concentration (MIC) for the following compounds

1. CC[C@H](C)[C@@H]1NC(=O)[C@@](C)(NC(=O)[C@H](CC(=O)O)NC(=O)[C@H](Cc2ccccc2)NC(=O)[C@H](CC(C)C)NC(=O)CNC(C)=O)CCCC=CCCC[C@@](C)(C(=O)N[C@@H](C)C(=O)N[C@@H](CCC(=O)O)C(=O)N[C@@H](CO)C(=O)N[C@@H](Cc2ccccc2)C(N)=O)NC(=O)[C@H](CCCCN)NC(=O)[C@H](CCCCN)NC1=O [Sau-5] (Ac-GLFD[S5]IKK[S5]AESF-NH2; staple 5-9): >128 µg/mL

The compound identified as CC[C@H](C)[C@H](NC(=O)[C@H](CC(=O)O)NC(=O)[C@H](Cc1ccccc1)NC(=O)[C@H](CC(C)C)NC(=O)CNC(C)=O)C(=O)N[C@@]1(C)CCCC=CCCC[C@@](C)(C(=O)N[C@@H](CCC(=O)O)C(=O)N[C@@H](CO)C(=O)N[C@@H](Cc2ccccc2)C(N)=O)NC(=O)[C@H]([C@@H](C)CC)NC(=O)[C@H](CCCCN)NC(=O)[C@H](CCCCN)NC1=O [Sau-6] (Ac-GLFDI[S5]KKI[S5]ESF-NH2; staple 6-10) registered its Minimum inhibitory concentration (MIC) at >128 µg/mL

====

tested on: C. auris 919; test: microbe, parasite or virus in culture; details: 919, 48 h
Where a SMILES comes first, the peptide text is derived from it. Bridges are numbered along the chain shown (N, C = ends). [ ]: non-standard residue; d: D form. S5 = C=CCCC[C@](C)(N)C(=O)O
observable: Minimum inhibitory concentration (MIC)

Consider the worked cases shown below.
1) CC[C@H](C)[C@H](NC(=O)[C@H](CCCCN)NC(=O)[C@]1(C)CCCC=CCCC[C@](C)(NC(=O)[C@H](CC(C)C)NC(=O)CNC(C)=O)C(=O)N[C@@H](CC(=O)O)C(=O)N[C@@H]([C@@H](C)CC)C(=O)N[C@@H]([C@@H](C)CC)C(=O)N1)C(=O)N[C@@H](C)C(=O)N[C@@H](CCC(=O)O)C(=O)N[C@@H](CO)C(=O)N[C@@H](Cc1ccccc1)C(N)=O [Sau-3] (Ac-GL[S5]DII[S5]KIAESF-NH2; staple 3-7): >128 µg/mL
2) CC[C@H](C)[C@H](NC(=O)[C@H](CC(=O)O)NC(=O)[C@H](Cc1ccccc1)NC(=O)[C@H](CC(C)C)NC(=O)CNC(C)=O)C(=O)N[C@@]1(C)CCCC=CCCC[C@@](C)(C(=O)N[C@@H](CCC(=O)O)C(=O)N[C@@H](CO)C(=O)N[C@@H](Cc2ccccc2)C(N)=O)NC(=O)[C@H]([C@@H](C)CC)NC(=O)[C@H](CCCCN)NC(=O)[C@H](CCCCN)NC1=O [Sau-6] (Ac-GLFDI[S5]KKI[S5]ESF-NH2; staple 6-10): >128 µg/mL

Next up:
The molecule identified as CC[C@H](C)[C@H](NC(=O)[C@H](CCCCN)NC(=O)[C@H](CCCCN)NC(=O)[C@]1(C)CCCC=CCCC[C@](C)(NC(=O)CNC(C)=O)C(=O)N[C@@H](Cc2ccccc2)C(=O)N[C@@H](CC(=O)O)C(=O)N[C@@H]([C@@H](C)CC)C(=O)N1)C(=O)N[C@@H](C)C(=O)N[C@@H](CCC(=O)O)C(=O)N[C@@H](CO)C(=O)N[C@@H](Cc1ccccc1)C(N)=O [Sau-2] (Ac-G[S5]FDI[S5]KKIAESF-NH2; staple 2-6) registered its Minimum inhibitory concentration (MIC) at >128 µg/mL
